- measurement_target: von Hippel-Lindau disease tumor suppressor/Histone-lysine N-methyltransferase NSD3 (Homo sapiens, UniProt P40337+Q9BZ95)
- Sequence (Q9BZ95 whole entry): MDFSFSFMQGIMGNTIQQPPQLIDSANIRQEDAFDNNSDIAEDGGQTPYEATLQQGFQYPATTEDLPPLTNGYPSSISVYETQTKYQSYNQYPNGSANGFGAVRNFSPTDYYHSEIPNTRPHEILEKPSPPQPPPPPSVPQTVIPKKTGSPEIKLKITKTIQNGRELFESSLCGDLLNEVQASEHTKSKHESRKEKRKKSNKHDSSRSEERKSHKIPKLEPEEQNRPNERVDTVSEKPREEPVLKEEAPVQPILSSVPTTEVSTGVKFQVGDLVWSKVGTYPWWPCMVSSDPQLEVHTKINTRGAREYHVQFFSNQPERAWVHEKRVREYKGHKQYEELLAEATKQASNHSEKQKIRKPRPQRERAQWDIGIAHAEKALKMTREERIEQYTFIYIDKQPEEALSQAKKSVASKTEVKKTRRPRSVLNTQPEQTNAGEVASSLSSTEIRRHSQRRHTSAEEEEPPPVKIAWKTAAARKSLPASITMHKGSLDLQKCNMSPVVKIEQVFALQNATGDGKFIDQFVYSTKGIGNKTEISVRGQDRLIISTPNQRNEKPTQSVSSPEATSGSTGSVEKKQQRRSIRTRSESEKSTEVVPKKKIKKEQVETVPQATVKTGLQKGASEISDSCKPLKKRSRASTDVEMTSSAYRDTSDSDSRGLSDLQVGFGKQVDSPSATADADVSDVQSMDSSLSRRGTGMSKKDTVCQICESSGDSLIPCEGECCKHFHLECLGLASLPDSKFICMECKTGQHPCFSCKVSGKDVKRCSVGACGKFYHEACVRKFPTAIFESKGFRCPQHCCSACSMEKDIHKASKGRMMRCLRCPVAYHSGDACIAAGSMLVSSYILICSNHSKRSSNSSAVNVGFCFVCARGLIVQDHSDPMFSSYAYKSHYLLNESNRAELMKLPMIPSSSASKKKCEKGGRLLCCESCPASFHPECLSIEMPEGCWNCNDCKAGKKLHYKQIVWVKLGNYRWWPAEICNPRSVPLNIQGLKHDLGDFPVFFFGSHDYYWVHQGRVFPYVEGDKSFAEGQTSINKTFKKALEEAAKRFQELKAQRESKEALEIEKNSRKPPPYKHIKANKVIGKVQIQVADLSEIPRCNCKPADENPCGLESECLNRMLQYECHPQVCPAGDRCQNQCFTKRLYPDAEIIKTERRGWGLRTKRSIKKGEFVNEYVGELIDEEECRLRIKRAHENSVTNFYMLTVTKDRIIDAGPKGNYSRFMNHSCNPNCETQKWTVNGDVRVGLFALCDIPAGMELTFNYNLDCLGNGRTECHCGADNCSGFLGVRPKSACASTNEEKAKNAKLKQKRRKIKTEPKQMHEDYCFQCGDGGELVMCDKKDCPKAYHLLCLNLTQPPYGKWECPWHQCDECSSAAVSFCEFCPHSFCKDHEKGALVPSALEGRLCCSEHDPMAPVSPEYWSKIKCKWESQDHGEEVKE
- Sequence (P40337 whole entry): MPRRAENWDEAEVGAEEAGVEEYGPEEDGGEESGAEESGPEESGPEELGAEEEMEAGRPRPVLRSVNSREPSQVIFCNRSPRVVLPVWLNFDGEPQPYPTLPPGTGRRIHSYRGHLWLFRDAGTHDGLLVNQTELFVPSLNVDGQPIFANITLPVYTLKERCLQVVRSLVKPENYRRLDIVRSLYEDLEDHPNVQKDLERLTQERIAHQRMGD
- assay_method_text: PROTAC activity at VHL/NSD3 […] domain in human MOLM-13 cells assessed as […] measured after 48 hrs by immunoblotting analysis
assay_readout: pEC50
pEC50 here: minus log base 10 of the concentration, concentration in moles per litre.

Lab book: pEC50 of Cc1cc(CNCCCC(=O)NCCCCCCCCC(=O)N[C@H](C(=O)N2C[C@@H](O)C[C@@H]2C(=O)N[C@H](C)c2ccc(-c3scnc3C)cc2)C(C)(C)C)cc(C)c1-c1ncn(C)c1-c1ccnc2cc(F)ccc12 noted as 5.31

* * *

- System: RS4-11
- assay_method_text: Antiproliferative activity against human RS4-11 cells assessed as cell growth inhibition measured after 8 days
- Type: functional, cell-based
- run_parameters: RS4-11, 192 h
assay_readout: pEC50
pEC50 here: minus log base 10 of the concentration, concentration in moles per litre.

Lab book: pEC50 of Cc1cc(CNCCCC(=O)NCCCCCCCCC(=O)N[C@H](C(=O)N2C[C@@H](O)C[C@@H]2C(=O)N[C@H](C)c2ccc(-c3scnc3C)cc2)C(C)(C)C)cc(C)c1-c1ncn(C)c1-c1ccnc2cc(F)ccc12 noted as 5.46

* * *

- measurement_target: Histone-lysine N-methyltransferase NSD2 (Homo sapiens)
- Sequence (O96028 whole entry, the tested form may be a part): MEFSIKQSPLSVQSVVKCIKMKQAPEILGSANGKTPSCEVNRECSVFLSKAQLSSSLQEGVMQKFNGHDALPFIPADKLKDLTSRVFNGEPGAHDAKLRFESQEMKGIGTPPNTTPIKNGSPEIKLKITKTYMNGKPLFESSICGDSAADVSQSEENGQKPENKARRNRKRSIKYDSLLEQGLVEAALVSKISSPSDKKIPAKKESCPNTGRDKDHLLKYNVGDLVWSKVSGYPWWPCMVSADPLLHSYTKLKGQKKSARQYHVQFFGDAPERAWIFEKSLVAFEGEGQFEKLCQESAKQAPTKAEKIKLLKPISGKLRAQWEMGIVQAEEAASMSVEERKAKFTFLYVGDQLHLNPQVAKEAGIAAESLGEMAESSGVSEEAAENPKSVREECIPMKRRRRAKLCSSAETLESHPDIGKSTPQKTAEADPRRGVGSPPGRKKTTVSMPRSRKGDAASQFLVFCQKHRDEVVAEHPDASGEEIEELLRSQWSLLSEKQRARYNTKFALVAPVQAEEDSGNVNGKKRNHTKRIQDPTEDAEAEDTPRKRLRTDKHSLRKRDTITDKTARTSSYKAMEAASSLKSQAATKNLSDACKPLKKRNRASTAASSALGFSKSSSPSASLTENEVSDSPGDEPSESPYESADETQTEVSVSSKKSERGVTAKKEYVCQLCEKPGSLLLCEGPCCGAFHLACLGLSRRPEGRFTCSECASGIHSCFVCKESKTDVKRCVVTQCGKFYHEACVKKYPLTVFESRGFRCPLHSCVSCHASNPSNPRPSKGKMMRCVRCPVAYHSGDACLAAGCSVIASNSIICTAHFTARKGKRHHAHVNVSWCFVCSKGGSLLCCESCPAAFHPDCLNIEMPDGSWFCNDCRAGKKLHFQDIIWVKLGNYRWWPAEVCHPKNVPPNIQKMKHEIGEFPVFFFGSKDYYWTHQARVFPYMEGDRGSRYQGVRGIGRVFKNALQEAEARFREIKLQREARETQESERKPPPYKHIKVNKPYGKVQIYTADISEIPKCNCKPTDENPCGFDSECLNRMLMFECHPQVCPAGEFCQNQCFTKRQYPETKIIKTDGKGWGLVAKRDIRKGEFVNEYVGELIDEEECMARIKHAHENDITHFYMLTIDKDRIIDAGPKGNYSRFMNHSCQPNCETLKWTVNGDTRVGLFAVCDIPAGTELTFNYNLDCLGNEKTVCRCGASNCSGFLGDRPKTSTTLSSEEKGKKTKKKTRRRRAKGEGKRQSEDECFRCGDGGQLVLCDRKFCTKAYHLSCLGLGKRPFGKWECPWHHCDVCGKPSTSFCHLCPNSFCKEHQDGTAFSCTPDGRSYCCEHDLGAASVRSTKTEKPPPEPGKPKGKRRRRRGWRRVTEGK
- assay_method_text: Inhibition of N-terminal GST-tagged human NSD2 (941 to 1240 residues ) expressed in Escherichia coli using 3[H] SAM as substrate measured after 30 mins by biochemical assay
Starred links: 1 amine or outer side, 2 acyl side, 3 side chain; linkers in the order of their positions; H or OH if unused. Non-standard residues stand in square brackets, D forms with d. Residues, ends and D or L forms follow the SMILES beside them. X1 = CCC[C@H](C)[C@H](N[*:1])C(=O)[*:2]
assay_readout: IC50 (µM)
Respond with the bare value in µM.

Lab book: IC50 of CCC[C@H](C)[C@H](NC(=O)[C@@H](NC(=O)CNC(C)=O)C(C)C)C(=O)N[C@@H](CCCNC(=N)N)C(=O)N[C@H](C(N)=O)[C@@H](C)CC (Ac-GV[X1]RI-NH2) noted as 22

* * *

- measurement_target: Histone-lysine N-methyltransferase NSD3 (Homo sapiens)
- Sequence (Q9BZ95 whole entry, the tested form may be a part): as the sequence (Q9BZ95 whole entry) above
- assay_method_text: Inhibition of N-terminal GST-fused recombinant human NSD3 (1021 to 1322 residues) expressed in Escherichia coli using SAM as substrate preincubated for 20 mins followed by substrate addition measured after 1 hrs by hotspot assay
assay_readout: IC50 (nM)
Respond with the bare value in nM.

Lab book: IC50 of CN1C(=O)[C@@]23C[C@]4([C@]56C[C@@]78SS[C@@](CO)(C(=O)N7[C@H]5Nc5ccccc56)N(C)C8=O)c5ccccc5N[C@@H]4N2C(=O)[C@]1(CO)SS3 noted as 3200

Lab book: IC50 of O=C1C(Cl)=C(NCCN2CCOCC2)C(=O)c2ncccc21 noted as 260
